Taken from patent US20230303994.

What desArg was measured for each of the following?
# assayed-system: pre-pro-insulin glargine
Provide the reading as a plain figure in area %.

Just so you know, measured desArg for trypsin variant SEQ ID NO: 81 (protein) IVGGYTCAANSIPYQVSLNSGSHRCGGSLINSQWVVSAAHCYKSRIQVRLGEHNIHVLEGNEQFINAAKIITHPNFNPNTLDNDIMLIKLSSPATLNSHVATVSLPTSCAAAGTECLISGWGNTASSGSSMPSLLQCLKAPVLSDSSCKSSYPGQITGNMICVGFLEGGKDACQGDSGGPVVCNGQLQGIVSSGYGCAQKNKPGVYTKVCNYVNWIQQTIAAN came out at 1.2

Just so you know, measured desArg for trypsin variant SEQ ID NO: 91 (protein) IVGGYTCAANSIPYQVSLNSGSHRCGGSLINSQWVVSAAHCYKPRIQVRLGEHNIHVLEGNEQFINAAKIITHPNFNPNTLDNDIMLIKLSSPATLNSAVATVSLPTSCAAAGTECLISGWGNTSSSGSSMPSLLQCLKAPVLSDSSCKSSYPGQITGNMICVGFLEGGKDACQGDSGGPVVCNGQLQGIVSSGYGCAQKNKPGVYTKVCNYVNWIQQTIAAN came out at 1

Just so you know, measured desArg for trypsin variant SEQ ID NO: 95 (protein) IVGGYTCAANSIPYQVSLNSGSHRCGGSLINSQWVVSAAHCYKPRIQVRLGEHNIHVLEGNEQFINAAKIITHPNFNPNTLDNDIMLIKLSSPATLNSHVATVSLPRSCAAAGTECLISGWGNTSSSGSSMPSLLQCLKAPVLSDSSCKSSYPGQITGNMICVGFLEGGADACQGDSGGPVVCNGQLQGIVSSGYGCAQKNKPGVYTKVCNYVNWIQQTIAAN came out at 1

Just so you know, measured desArg for trypsin variant SEQ ID NO: 116 (protein) IVGGYTCAANSIPYQVSLNSGSHRCGGSLINSQWVVSAAHCYKPRIQVRLGEHNIHVLEGNEQFINAAKIITHPNFNGNTLDNDIMLIKLSSPATLNSNVATVSLPTSCAAAGTECLISGWGNTSSSGSSMPSLLQCLKAPVLSDSSCKSSYPGQITGNMICVGFLEGGADACQGDSGGPVVCNGQLQGIVSSGYGCAQKNKPGVYTKVCNYVNWIQQTIAAN came out at 0.5
